Biological target: bovine pancreatic trypsin (bovine)
Sequence (P00760 24-246): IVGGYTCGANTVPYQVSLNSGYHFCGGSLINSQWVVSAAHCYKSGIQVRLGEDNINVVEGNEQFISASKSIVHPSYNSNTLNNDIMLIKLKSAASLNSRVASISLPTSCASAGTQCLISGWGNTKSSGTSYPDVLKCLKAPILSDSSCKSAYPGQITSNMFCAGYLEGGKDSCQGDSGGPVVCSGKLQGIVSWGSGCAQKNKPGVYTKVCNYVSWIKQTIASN
Assay: chromogenic enzyme inhibition assay; 1 nM trypsin, 500 μM S2765, 37 °C, 110 mM Tris-HCl pH 8.0, 250 mM NaCl, 1% BSA; residual activity in triplicate at at least six inhibitor concentrations; Ki from a linear fit of 1/v against inhibitor concentration
pKi: −log10 of the molar value.
Property Name: pKi

(I) CHFI-2345 (domain or fragment) IPHNPLPSCRWYVTSRTCGIGPRLPWPELKRRCCRELADIPAYDRCTALSILMDGAIPPGPDAQLEGRLEDLPGCPREVQRGFAATLVTEAECNLATISGVAECPWILGGGTMPSK
(II) CHFI-12345, recombinant full-size CHFI without any truncations (natural protein) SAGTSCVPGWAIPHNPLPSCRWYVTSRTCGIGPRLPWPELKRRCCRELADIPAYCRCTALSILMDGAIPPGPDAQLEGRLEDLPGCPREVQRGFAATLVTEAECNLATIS
Input: From the recorded data, which exceeds the other in pKi: I or II ? # answer = label of selected item
Output: II
(II: 8.89, I: 8.54)

Source: paper PMC4022879
